Below is a list of entries, each paired with its recorded abundance fitness value.
B1: Transcription elongation factor A N-terminal and central domain-containing protein, residues 30 to 77; numbered along this chain, Q8N8B7 (parent)
chain: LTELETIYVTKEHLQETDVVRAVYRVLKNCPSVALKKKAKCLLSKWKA

- Variants of: B1
- ASSAY: abundance fitness (aPCA) (normalised: wild type 0, dead -1); higher = more abundant; growth selection in yeast, the domain comes from the species named
- CONDITION_DESCRIPTION: Homo sapiens
TEST_READOUT: abundance fitness

V20E ... -0.561
T10V ... -0.18
K38P ... -0.679
L27S ... -0.966
S44F ... -0.158
C41Y ... -0.558
L27P ... -0.444
Y8E ... 0.448
V19N ... -0.695
L43C ... -0.647
L42M ... -0.203
T17D ... -0.368
Q15V ... -0.527
E5C ... -0.897
K38N ... 0.201
K28T ... -0.169
K38L ... -0.024
C41R ... 0.167
A34P ... -0.378
E3F ... 0.477
K28S ... -0.368
L35F ... -0.293
Q15C ... -0.002
Y8R ... -0.094
